# system_tested: Human C5 (Homo sapiens, UniProt P01031)
# Construct: purchased Complement Technology
# Sequence (P01031 19-1676): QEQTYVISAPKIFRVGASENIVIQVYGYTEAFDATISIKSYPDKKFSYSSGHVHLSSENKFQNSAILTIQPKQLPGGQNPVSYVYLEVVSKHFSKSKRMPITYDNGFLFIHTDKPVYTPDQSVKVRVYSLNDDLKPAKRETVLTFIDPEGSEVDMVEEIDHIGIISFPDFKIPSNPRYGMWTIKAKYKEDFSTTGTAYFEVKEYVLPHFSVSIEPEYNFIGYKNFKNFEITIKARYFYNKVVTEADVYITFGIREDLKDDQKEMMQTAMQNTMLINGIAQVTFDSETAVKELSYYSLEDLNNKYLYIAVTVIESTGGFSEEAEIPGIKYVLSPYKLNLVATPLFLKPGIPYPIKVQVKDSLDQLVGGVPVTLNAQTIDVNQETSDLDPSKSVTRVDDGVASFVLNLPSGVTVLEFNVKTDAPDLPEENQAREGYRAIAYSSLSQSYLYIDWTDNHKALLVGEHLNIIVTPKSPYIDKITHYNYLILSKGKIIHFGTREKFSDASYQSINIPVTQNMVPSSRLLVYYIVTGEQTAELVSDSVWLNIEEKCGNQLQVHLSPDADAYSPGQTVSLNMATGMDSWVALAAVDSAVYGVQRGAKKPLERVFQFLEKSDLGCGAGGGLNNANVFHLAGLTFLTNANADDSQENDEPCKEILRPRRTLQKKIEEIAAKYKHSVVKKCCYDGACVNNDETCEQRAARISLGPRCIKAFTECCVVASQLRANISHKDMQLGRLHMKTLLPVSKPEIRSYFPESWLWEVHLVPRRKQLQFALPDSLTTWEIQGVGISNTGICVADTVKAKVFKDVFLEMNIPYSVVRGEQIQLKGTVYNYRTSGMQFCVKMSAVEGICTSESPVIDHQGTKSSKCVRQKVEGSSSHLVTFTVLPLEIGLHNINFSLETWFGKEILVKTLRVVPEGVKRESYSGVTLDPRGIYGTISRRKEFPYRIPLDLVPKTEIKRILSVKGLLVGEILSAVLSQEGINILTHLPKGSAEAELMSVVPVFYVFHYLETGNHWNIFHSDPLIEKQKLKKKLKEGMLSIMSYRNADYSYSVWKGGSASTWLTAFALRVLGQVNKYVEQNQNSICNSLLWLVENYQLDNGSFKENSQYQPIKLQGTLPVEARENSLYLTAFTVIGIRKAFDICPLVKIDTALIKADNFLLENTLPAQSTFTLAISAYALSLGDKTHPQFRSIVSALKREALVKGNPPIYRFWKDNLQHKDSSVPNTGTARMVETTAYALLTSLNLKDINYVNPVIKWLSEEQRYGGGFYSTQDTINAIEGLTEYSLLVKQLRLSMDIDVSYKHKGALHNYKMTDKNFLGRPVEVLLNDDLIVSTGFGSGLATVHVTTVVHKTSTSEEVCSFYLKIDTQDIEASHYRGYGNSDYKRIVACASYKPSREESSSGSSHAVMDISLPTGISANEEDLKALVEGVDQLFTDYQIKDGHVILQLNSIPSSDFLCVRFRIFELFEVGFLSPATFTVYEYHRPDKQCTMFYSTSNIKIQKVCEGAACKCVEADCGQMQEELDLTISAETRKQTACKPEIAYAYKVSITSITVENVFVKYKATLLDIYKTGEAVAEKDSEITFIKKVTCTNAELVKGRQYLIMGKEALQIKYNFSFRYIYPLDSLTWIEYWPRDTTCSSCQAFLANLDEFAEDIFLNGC
# experimental_protocol: Red blood cell (RBC) hemolysis assay, luminescent (Example 28, Table 32)
# Assay type: cell-based
# measurement_context: sheep EA cells, 1.5% C5-depleted human serum, 0.5 nM human C5, 1 hour at 37° C., luminescence (Table 32)
reported_property: IC50 (nM)
Record the value in nM, omitting the unit from your answer.

Query: Enter reported IC50 observed with Human C5 (Homo sapiens, UniProt P01031) for COc1ccc(N2CC[C@H](C)N(Cc3ccnc4c3ccn4CC(=O)N(C)C)C2=O)cc1OCCCC1CC1 [SC0208]
Response: 12.6

Query: GET /values?readout=IC50&system=Human C5 (Homo sapiens, UniProt P01031)&item= COc1ccc(N2CC[C@H](C)N(Cc3cccc4c3ccn4CC(=O)N(C)C)C2=O)cc1OCCCC1CC1 [SC0174]
Response: 4.3

Query: Report IC50 for COc1cc(CC(=O)N2CCO[C@H](CN(C)C)C2)ccc1CN1C(=O)N(c2ccc(OC)c(OCCCC3CC3)c2)CC[C@@H]1C [SC0134] tested on Human C5 (Homo sapiens, UniProt P01031).
Response: 1.8

Query: Request - read-out IC50 | tested on Human C5 (Homo sapiens, UniProt P01031) | compound CCCCCOc1cc(N2CC[C@H](C)N(Cc3ccnc4c3c(Cl)cn4CC(=O)N3CC(N4CCOCC4)C3)C2=O)ccc1OC [SC0117]
Response: 1.4

Query: Look up IC50 with Human C5 (Homo sapiens, UniProt P01031) for this compound: COc1cc(CC(=O)N[C@@H]2CCN(C(=O)OC(C)(C)C)C2)ccc1CN1C(=O)N(c2ccc(OC)c(OCCCC3CC3)c2)CC[C@@H]1C [SC0187]
Response: 6.1

Query: Query the reported IC50 for Human C5 (Homo sapiens, UniProt P01031); item: COc1ccc(N2CC[C@H](C)N(Cc3cccc4c3c(Cl)cn4CC(=O)N(C)C)C2=O)cc1OCCCC1CC1 [SC0116]
Response: 1.4

Query: Form field - read-out: IC50; system: Human C5 (Homo sapiens, UniProt P01031); submitted item: CCCCCOc1cc(N2CC[C@H](C)N(Cc3ccnc4c3c(Cl)cn4CC(=O)N(C)OC)C2=O)ccc1OC [SC0124]
Response: 1.6

Query: # get_value(readout= IC50, system= Human C5 (Homo sapiens, UniProt P01031)) for CCCCCOc1cc(N2CC[C@H](C)N(Cc3cccc4c3c(Cl)c(C)n4CC(=O)N(C)C)C2=O)ccc1OC [SC0132]
Response: 1.7

Query: Write down the reported IC50 of CCCCCOc1cc(N2C[C@H](C(=O)NC)CN(Cc3cc(F)ccc3OC)C2=O)ccc1OC [SC0217] , test system: Human C5 (Homo sapiens, UniProt P01031).
Response: 25.3

Query: Tell me reported IC50 for CCCCCOc1cc(N2CC(CO)CN(Cc3ccc(CC(=O)O)cc3OC)C2=O)ccc1OC (stereo not shown) [SC0222] , tested with Human C5 (Homo sapiens, UniProt P01031).
Response: 74.1

Query: Give Human C5 (Homo sapiens, UniProt P01031) IC50 for COc1ccc(N2CC[C@H](C)N(Cc3cccc4c3ccn4CC(=O)N(C)C)C2=O)cc1OCCCC1CCC1 [SC0205]
Response: 11.4

Query: Hi! What's the reported IC50 for COc1ccc(N2CC[C@H](C)N(Cc3cccc4c3ccn4S(=O)(=O)c3ccc(C)cc3)C2=O)cc1OCCCC1CC1 [SC0225] on Human C5 (Homo sapiens, UniProt P01031)?
Response: 110

Query: So what IC50 did COc1cc(CC(=O)N2CC[C@H](N(C)C)C2)ccc1CN1C(=O)N(c2ccc(OC)c(OCCCC3CC3)c2)CC[C@@H]1C [SC0101] get with Human C5 (Homo sapiens, UniProt P01031)?
Response: 0.9

Query: Record COc1cc(CC(=O)N2CCOCC2)ccc1CN1C(=O)N(c2ccc(OC)c(OCCCC3CC3)c2)CC[C@@H]1C [SC0139] : what is its IC50 with Human C5 (Homo sapiens, UniProt P01031)?
Response: 1.9

Query: Please provide the recorded IC50 for COc1cc(CCN2CCOCC2)ccc1CN1C(=O)N(c2ccc(OC)c(OCCCC3CC3)c2)CC[C@@H]1C [SC0182] , tested on Human C5 (Homo sapiens, UniProt P01031).
Response: 5.2

Query: Quick check: IC50 on Human C5 (Homo sapiens, UniProt P01031), item CCCCCOc1cc(N2CC(CO)CN(Cc3ccc(CC(=O)N4CCNC(=O)C4)cc3OC)C2=O)ccc1OC (stereo not shown) [SC0178] ?
Response: 4.8
